Values from patent US20210163412A1

target-or-system: NLRP3 (Homo sapiens)
Sequence (Q96P20 whole entry): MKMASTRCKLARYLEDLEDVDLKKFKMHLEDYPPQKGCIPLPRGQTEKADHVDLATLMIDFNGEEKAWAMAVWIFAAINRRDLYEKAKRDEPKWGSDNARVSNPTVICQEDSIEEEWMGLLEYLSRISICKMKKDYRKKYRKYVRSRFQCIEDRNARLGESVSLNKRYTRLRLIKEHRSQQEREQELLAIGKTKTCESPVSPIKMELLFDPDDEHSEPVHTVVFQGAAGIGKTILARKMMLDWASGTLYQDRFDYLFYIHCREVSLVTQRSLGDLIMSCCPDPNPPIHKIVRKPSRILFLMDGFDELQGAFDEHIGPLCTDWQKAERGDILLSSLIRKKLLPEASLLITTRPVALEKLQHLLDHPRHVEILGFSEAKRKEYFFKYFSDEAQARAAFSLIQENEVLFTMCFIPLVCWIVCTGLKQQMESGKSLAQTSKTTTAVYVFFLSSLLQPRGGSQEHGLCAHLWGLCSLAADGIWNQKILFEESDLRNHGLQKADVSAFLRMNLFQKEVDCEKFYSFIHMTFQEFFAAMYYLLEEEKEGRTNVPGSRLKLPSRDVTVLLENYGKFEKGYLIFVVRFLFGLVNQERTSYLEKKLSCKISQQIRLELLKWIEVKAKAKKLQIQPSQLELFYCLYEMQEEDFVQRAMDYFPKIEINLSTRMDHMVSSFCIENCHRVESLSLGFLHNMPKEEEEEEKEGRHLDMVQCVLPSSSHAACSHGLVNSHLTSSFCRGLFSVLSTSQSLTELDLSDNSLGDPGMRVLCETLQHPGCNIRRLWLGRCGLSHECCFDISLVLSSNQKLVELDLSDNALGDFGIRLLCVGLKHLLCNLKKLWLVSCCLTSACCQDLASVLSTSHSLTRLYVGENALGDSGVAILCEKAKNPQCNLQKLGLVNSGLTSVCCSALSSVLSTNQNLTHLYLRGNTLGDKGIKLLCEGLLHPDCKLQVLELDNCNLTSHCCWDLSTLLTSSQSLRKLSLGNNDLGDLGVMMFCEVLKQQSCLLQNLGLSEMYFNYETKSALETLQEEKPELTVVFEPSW
assay-method-text: THP-1 cells pyroptosis assay
Assay type: cell-based
Set-up: Seed THP-1 cells (25,000 cells/well) containing 1.0 μg/ml LPS; host or cells: THP-1 cells
measurement-context: LPS 1 μg/ml, nigericin 5 μM, resazurin readout
In this section, each of the compounds is paired with its reported IC50.

// known answers, use as guide
{"columns": ["compound", "IC50"],
 "data": [
  ["CC(C)(CN1CCC1)n1ccc(S(=O)(=O)NC(=O)Nc2c(-c3ccnc(OC4CC4)c3)ccc3c2CCC3)n1", "≤ 250 nM"],
  ["Cc1cc2c(c(NC(=O)NS(C)(=O)=O)c1-c1ccnc(OCC3CCCN(C)C3)c1)CCC2 (stereo not drawn)", "≤ 250 nM"],
  ["CC(C)n1ccc(S(=O)(=O)NC(=O)Nc2c(-c3ccnc(OC4CCOCC4)c3)ccc3c2CCC3)n1", "≤ 250 nM"],
  ["O=C(Nc1c(-c2ccnc(OC3CC3)c2)ccc2c1CCO2)NS(=O)(=O)c1ccn(C2CCC2)n1", "≤ 250 nM"]
]}

### Prompt Give its IC50 value. Item: CS(=O)(=O)NC(=O)Nc1c(-c2ccnc(O[C@H]3CC[C@@](C)(O)CC3)c2)ccc2c1CCC2
### Response ≤ 250 nM

### Prompt Give its IC50 value. Item: O=C(Nc1c(-c2ccnc(OC3CC3)c2)ccc2c1CCC2)NS(=O)(=O)c1ccn(C2CC2)n1
### Response ≤ 250 nM

### Prompt Give its IC50 value. Item: CO[C@H]1CC[C@H](Oc2cc(-c3c(C)cc4c(c3NC(=O)NS(C)(=O)=O)CCC4)ccn2)CC1
### Response ≤ 250 nM

### Prompt Give its IC50 value. Item: Cc1cc2c(c(NC(=O)NS(C)(=O)=O)c1-c1ccnc(O[C@H]3CC[C@H](N(C)C)CC3)c1)CCC2
### Response ≤ 250 nM

### Prompt Give its IC50 value. Item: CS(=O)(=O)NC(=O)Nc1c(-c2ccnc(OC3CCN(C4CC4)CC3)c2)ccc2c1CCC2
### Response ≤ 250 nM

### Prompt Give its IC50 value. Item: CC(C)c1cc(F)cc(-c2ccnc(OC3CCN(C)CC3)c2)c1NC(=O)NS(C)(=O)=O
### Response 500 to 1000 nM

### Prompt Give its IC50 value. Item: CC1CC(Oc2cc(-c3ccc4c(c3NC(=O)NS(C)(=O)=O)CCC4)ccn2)CCO1 (stereo not drawn)
### Response 250 to 500 nM

### Prompt Give its IC50 value. Item: C=CCN1CCC(Oc2cc(-c3ccc4c(c3NC(=O)NS(=O)(=O)CC=C)CCC4)ccn2)CC1
### Response ≤ 250 nM

### Prompt Give its IC50 value. Item: CN1CCC(COc2cc(-c3ccc4c(c3NC(=O)NS(C)(=O)=O)CCC4)ccn2)CC1
### Response 1000 to 2000 nM

### Prompt Give its IC50 value. Item: CC(C)n1ccc(S(=O)(=O)NC(=O)Nc2c(-c3ccnc(OC4CCCOC4)c3)ccc3c2CCC3)n1 (stereo not drawn)
### Response ≤ 250 nM

### Prompt Give its IC50 value. Item: CN(C)C1CCC(Oc2cc(-c3ccc4c(c3NC(=O)NS(C)(=O)=O)CCC4)ccn2)CC1 (stereo not drawn)
### Response ≤ 250 nM

### Prompt Give its IC50 value. Item: CS(=O)(=O)NC(=O)Nc1c(-c2ccnc(OC3CCN(Cc4ccccc4)CC3)c2)ccc2c1CCC2
### Response ≤ 250 nM

### Prompt Give its IC50 value. Item: Cc1cc2c(c(NC(=O)NS(C)(=N)=O)c1-c1ccnc(OC3CCN(C)CC3)c1)CCC2 (stereo not drawn)
### Response ≤ 250 nM

### Prompt Give its IC50 value. Item: CN(C)CC(C)(C)n1ccc(S(=O)(=O)NC(=O)Nc2c(-c3ccnc(OC4CC4)c3)ccc3c2CCO3)n1
### Response ≤ 250 nM

### Prompt Give its IC50 value. Item: O=C(Nc1c(-c2ccnc(OC3CC3)c2)ccc2c1CCO2)NS(=O)(=O)c1ccn(C2CC2)n1
### Response ≤ 250 nM

### Prompt Give its IC50 value. Item: CO[C@H]1CC[C@@H](Oc2cc(-c3c(C)cc4c(c3NC(=O)NS(C)(=O)=O)CCC4)ccn2)CC1
### Response ≤ 250 nM

### Prompt Give its IC50 value. Item: CO[C@H]1CC[C@@H](Oc2cc(-c3ccc4c(c3NC(=O)NS(C)(=O)=O)CCC4)ccn2)CC1
### Response ≤ 250 nM

### Prompt Give its IC50 value. Item: CN1CCC(Oc2cc(-c3ccc4c(c3NC(=O)NS(C)(=O)=O)CCC4)ccn2)CC1
### Response ≤ 250 nM
